tested on: COG-LL-394h; assay: selective drug sensitivity score (sDSS, relative to normal bone marrow) (sDSS (score)); higher = more potent and effective on the cell line relative to normal bone marrow cells; settings: 72 h;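 also: ALL cell lines in 384-well plates, five doses spanning 10,000-fold, each plate scaled between vehicle and 100 µmol/L benzalkonium chloride controls, sDSS an adapted area-under-curve metric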
Decision: selective drug sensitivity score compared against -0.7; not below it gives 1, below it gives 0.

Recorded results for 3 compounds are shown here.
>  <compound>
C[C@]12C=CC(=O)C=C1CC[C@@H]1[C@@H]2[C@@H](O)C[C@@]2(C)[C@H]1CC[C@]2(O)C(=O)CO [Prednisolone] (top concentration 10000 nM)

>  <study target>
COG-LL-394h

>  <answer label>
0

$$$$
>  <compound>
Nc1nc(Cl)nc2c1ncn2[C@H]1C[C@H](O)[C@@H](CO)O1 [Cladribine] (top concentration 1000 nM)

>  <study target>
COG-LL-394h

>  <answer label>
0

$$$$
>  <compound>
NS(=O)(=O)NCCNc1nonc1/C(=N/O)Nc1ccc(F)c(Br)c1 [Epacadostat] (top concentration 10000 nM)

>  <study target>
COG-LL-394h

>  <answer label>
1

$$$$

Problem: Entry CN(C)Cc1ccc(S(=O)(=O)n2ccc(/C=C/C(=O)NO)c2)cc1 [Resminostat] (top concentration 10000 nM) : is its selective drug sensitivity score no less than -0.7?
Solution: 1

###

Would you kindly list selective drug sensitivity score for each of these compounds?
system: COG-LL-355h; assay: selective drug sensitivity score (sDSS, relative to normal bone marrow) (sDSS (score)); higher = more potent and effective on the cell line relative to normal bone marrow cells; conditions: 72 h
Give bare numbers.

// solved cases for selective drug sensitivity score follow
>  <compound>
CN1CCN(CCOc2cc(OC3CCOCC3)c3c(Nc4c(Cl)ccc5c4OCO5)ncnc3c2)CC1 [Saracatinib] (top concentration 10000 nM)

>  <selective drug sensitivity score>
0.48

$$$$
>  <compound>
CNS(=O)(=O)Nc1nccc(Cc2c(C)c3ccc(Oc4ncccn4)cc3oc2=O)c1F (top concentration 1000 nM)

>  <selective drug sensitivity score>
0.02

$$$$
>  <compound>
Cc1ccc(=O)n(-c2ccccc2)c1 [Pirfenidone] (top concentration 10000 nM)

>  <selective drug sensitivity score>
0

$$$$

Please examine the following record next.
Problem: Give its selective drug sensitivity score value. Item: CN(C)C(=O)c1cc2cnc(Nc3ccc(N4CCNCC4)cn3)nc2n1C1CCCC1 [Ribociclib] (top concentration 10000 nM)
Solution: 0.18

###

system: PF-382; experiment: selective drug sensitivity score (sDSS, relative to normal bone marrow) (sDSS (score)); higher = more potent and effective on the cell line relative to normal bone marrow cells; conditions: 72 h
property measured: selective drug sensitivity score
Give bare numbers.

Example compounds with recorded selective drug sensitivity score:
>  <compound>
S=C(NCc1ccc2c(c1)OCO2)N1CCN(c2ncnc3c2oc2ccccc23)CC1 [Amuvatinib] (top concentration 10000 nM)

>  <selective drug sensitivity score>
5.06

$$$$
>  <compound>
COc1ncc(-c2ccc3nccc(-c4ccnnc4)c3c2)cc1NS(=O)(=O)c1ccc(F)cc1F [Omipalisib] (top concentration 1000 nM)

>  <selective drug sensitivity score>
9.8

$$$$
>  <compound>
Clc1ccc(Nc2nnc(Cc3ccncc3)c3ccccc23)cc1 [Vatalanib] (top concentration 10000 nM)

>  <selective drug sensitivity score>
0

$$$$

Problem: // lookup selective drug sensitivity score | system=PF-382 | key= CCc1cncnc1N1CCN(Cc2nc3cc(C(F)(F)F)ccc3[nH]2)CC1 (top concentration 10000 nM)
Solution: 2.96
